Molecular target: His6 tagged human recombinant FABP4 (Homo sapiens, UniProt P15090)
Construct: purchased Cayman Chemicals 10009549
Sequence (P15090 whole entry): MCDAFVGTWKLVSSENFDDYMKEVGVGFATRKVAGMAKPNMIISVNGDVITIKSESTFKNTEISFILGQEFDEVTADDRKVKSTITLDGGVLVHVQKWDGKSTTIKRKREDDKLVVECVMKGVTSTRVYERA
Experiment: FABP4 TR-FRET assay: displacement of BODIPY FL C12 fatty acid
Conditions: 10 μM compound, triplicates, inhibition of BODIPY FL C12 binding
Method: Activity of compounds with FABP4 was profiled using a Terbium (Tb) based time resolved fluorescence energy transfer (TR-FRET) assay. […] The TR-FRET signals were recorded using an EnVision Multilabel plate reader (PerkinElmer; TB excitation 320 nm, BODIPY FL C12 emission 520 nm; TB emission 615 nm). Relative fluorescence ratio (520 nm*10,000/615 nm) were used to calculate the compound mediated inhibition of BODIPY C12 FL fatty acid binding to FABP4. […]
Tag: true if measured inhibition at 10 µM is not below 90%, false if it is.

Exam item: Hello, I need to know if CCCCCCC1CCc2c(n(Cc3ccccc3F)c3c(C(=O)O)cccc23)C1 (stereo not shown) has measured inhibition at 10 µM not below 90%. Thanks!
Marked response: false

Exam item: Hello, I need to know if CCCCCCC1CCCc2c(n(Cc3cccc(C(N)=O)n3)c3c(C(=O)O)cccc23)C1 (stereo not shown) has measured inhibition at 10 µM not below 90%. Thanks!
Marked response: true

Exam item: Hello, I need to know if CCCCC1CCCc2c(n(Cc3ccccc3C(N)=O)c3c(C(=O)O)cccc23)C1 (stereo not shown) has measured inhibition at 10 µM not below 90%. Thanks!
Marked response: true

Exam item: Hello, I need to know if CCCCC1CCCc2c(n(Cc3cccc(Cl)c3)c3c(C(=O)O)cccc23)C1 (stereo not shown) has measured inhibition at 10 µM not below 90%. Thanks!
Marked response: false

Exam item: Hello, I need to know if CCC1CCc2c1n(Cc1cccc(C(N)=O)c1)c1c(C(=O)O)cccc21 (stereo not shown) has measured inhibition at 10 µM not below 90%. Thanks!
Marked response: true

Exam item: Hello, I need to know if CCCC1CCc2c1n(Cc1cccc(C#N)c1)c1c(C(=O)O)cccc21 (stereo not shown) has measured inhibition at 10 µM not below 90%. Thanks!
Marked response: true

Exam item: Hello, I need to know if CCCCC1CCc2c(c3cccc(C(=O)O)c3n2Cc2cccc(C(N)=O)c2)C1 (stereo not shown) has measured inhibition at 10 µM not below 90%. Thanks!
Marked response: true

Exam item: Hello, I need to know if CCCCC1CCc2c(c3cccc(C(=O)O)c3n2Cc2cccc(C#N)c2)C1 (stereo not shown) has measured inhibition at 10 µM not below 90%. Thanks!
Marked response: false

Exam item: Hello, I need to know if NC(=O)c1cccc(Cn2c3c(c4cccc(C(=O)O)c42)C(CCc2ccccc2)CCC3)c1 (stereo not shown) has measured inhibition at 10 µM not below 90%. Thanks!
Marked response: false

Exam item: Hello, I need to know if CCCCC1CCCc2c(n(Cc3cccc(OC)c3)c3c(C(=O)O)cccc23)C1 (stereo not shown) has measured inhibition at 10 µM not below 90%. Thanks!
Marked response: false

Exam item: Hello, I need to know if CCC1CCCc2c(n(Cc3cccc(C(N)=O)c3)c3c(C(=O)O)cccc23)C1 (stereo not shown) has measured inhibition at 10 µM not below 90%. Thanks!
Marked response: true

Exam item: Hello, I need to know if CCCCCCC1CCc2c(n(Cc3cccc(O)c3)c3c(C(=O)O)cccc23)C1 (stereo not shown) has measured inhibition at 10 µM not below 90%. Thanks!
Marked response: true

Exam item: Hello, I need to know if CCC1CCCc2c1n(Cc1cccc(C(N)=O)c1)c1c(C(=O)O)cccc21 (stereo not shown) has measured inhibition at 10 µM not below 90%. Thanks!
Marked response: true

Exam item: Hello, I need to know if CCC1CCCc2c(n(Cc3cccc(C#N)c3)c3c(C(=O)O)cccc23)C1 (stereo not shown) has measured inhibition at 10 µM not below 90%. Thanks!
Marked response: true

Exam item: Hello, I need to know if CCCCCCC1CCCc2c(n(Cc3ccc(F)cc3)c3c(C(=O)O)cccc23)C1 (stereo not shown) has measured inhibition at 10 µM not below 90%. Thanks!
Marked response: false

Exam item: Hello, I need to know if CCCCC1CCCCc2c1n(Cc1cccc(C(N)=O)c1)c1c(C(=O)O)cccc21 (stereo not shown) has measured inhibition at 10 µM not below 90%. Thanks!
Marked response: true

Exam item: Hello, I need to know if CCCCC1CCCc2c1n(Cc1cccc(C(N)=O)c1)c1c(C(=O)O)cccc21 (stereo not shown) has measured inhibition at 10 µM not below 90%. Thanks!
Marked response: false

Exam item: Hello, I need to know if CCCCC1CCCCc2c1n(Cc1cccc(C#N)c1)c1c(C(=O)O)cccc21 (stereo not shown) has measured inhibition at 10 µM not below 90%. Thanks!
Marked response: false

Exam item: Hello, I need to know if CCCCCCC1CCCc2c(n(Cc3cccnc3)c3c(C(=O)O)cccc23)C1 (stereo not shown) has measured inhibition at 10 µM not below 90%. Thanks!
Marked response: true

Exam item: Hello, I need to know if CCCCCCC1CCCc2c(n(Cc3cccc(C#N)c3)c3c(C(=O)O)cc(F)cc23)C1 (stereo not shown) has measured inhibition at 10 µM not below 90%. Thanks!
Marked response: true

Exam item: Hello, I need to know if CCCCCCC1CCc2c(n(Cc3ccc(C#N)cc3)c3c(C(=O)O)cccc23)C1 (stereo not shown) has measured inhibition at 10 µM not below 90%. Thanks!
Marked response: false

###

Exercise: state measured inhibition at 10 µM for each of the molecules provided.
target: His6 tagged human recombinant FABP4 (Homo sapiens); construct: purchased Cayman Chemicals 10009549; assay: FABP4 TR-FRET assay: displacement of BODIPY FL C12 fatty acid; conditions: 10 μM compound, triplicates, inhibition of BODIPY FL C12 binding
// note: answer is a bare numeric in %

Exam item: Indicate its recorded inhibition at 10 µM; the molecule in question is CCCCCCC1CCc2c(n(Cc3ccc(C(N)=O)cc3)c3c(C(=O)O)cccc23)C1 (centres unmarked)
Marked response: 89.3

Exam item: Indicate its recorded inhibition at 10 µM; the molecule in question is CCCC1CCc2c(c3cccc(C(=O)O)c3n2Cc2cccc(C#N)c2)C1 (centres unmarked)
Marked response: 85.4

Exam item: Indicate its recorded inhibition at 10 µM; the molecule in question is CCCC1CCc2c(c3cccc(C(=O)O)c3n2Cc2cccc(C(N)=O)c2)C1 (centres unmarked)
Marked response: 99.2

Exam item: Indicate its recorded inhibition at 10 µM; the molecule in question is CCCCCC1CCc2c(c3cccc(C(=O)O)c3n2Cc2cccc(C(N)=O)c2)C1 (centres unmarked)
Marked response: 98.4

Exam item: Indicate its recorded inhibition at 10 µM; the molecule in question is CCCCC1CCCc2c(n(Cc3ccc(C(N)=O)cc3)c3c(C(=O)O)cccc23)C1 (centres unmarked)
Marked response: 95.5

###

target: His6 tagged human recombinant FABP4 (Homo sapiens); construct: purchased Cayman Chemicals 10009549; test: FABP4 TR-FRET assay: displacement of BODIPY FL C12 fatty acid; conditions: 10 μM compound, triplicates, inhibition of BODIPY FL C12 binding
Tag: true (1) if measured inhibition at 10 µM is not below 90%, false (0) if it is.

Exam item: Hello, I need to know if NC(=O)c1cccc(Cn2c3c(c4cccc(C(=O)O)c42)CCCC(CCc2ccccc2)C3)c1 (stereo not shown) has measured inhibition at 10 µM not below 90%. Thanks!
Marked response: true (1)

Exam item: Hello, I need to know if CCCCC1CCCc2c1c1cccc(C(=O)O)c1n2Cc1cccc(C#N)c1 (stereo not shown) has measured inhibition at 10 µM not below 90%. Thanks!
Marked response: false (0)

Exam item: Hello, I need to know if CCCCCCC1CCCc2c(n(Cc3ccc(C#N)cc3)c3c(C(=O)O)cccc23)C1 (stereo not shown) has measured inhibition at 10 µM not below 90%. Thanks!
Marked response: false (0)

###

molecular target: His6 tagged human recombinant FABP4 (Homo sapiens, UniProt P15090); construct: purchased Cayman Chemicals 10009549; test: FABP4 TR-FRET assay: displacement of BODIPY FL C12 fatty acid; conditions: 10 μM compound, triplicates, inhibition of BODIPY FL C12 binding
Tag: T if measured inhibition at 10 µM is not below 90%, F if it is.

Exam item: Hello, I need to know if CCCCC1CCCc2c(n(Cc3cccc(C(=O)O)c3)c3c(C(=O)O)cccc23)C1 (stereo not shown) has measured inhibition at 10 µM not below 90%. Thanks!
Marked response: T

Exam item: Hello, I need to know if CCCCCCC1CCCc2c(n(Cc3cccc(C)c3)c3c(C(=O)O)cccc23)C1 (stereo not shown) has measured inhibition at 10 µM not below 90%. Thanks!
Marked response: T

Exam item: Hello, I need to know if CCCCCCC1CCCc2c(n(Cc3ccnc(C(F)(F)F)c3)c3c(C(=O)O)cccc23)C1 (stereo not shown) has measured inhibition at 10 µM not below 90%. Thanks!
Marked response: T

Exam item: Hello, I need to know if CCCCCCC1CCCc2c(n(Cc3ccc(C(N)=O)cc3)c3c(C(=O)O)cccc23)C1 (stereo not shown) has measured inhibition at 10 µM not below 90%. Thanks!
Marked response: F

Exam item: Hello, I need to know if CCCCCCC1CCCc2c(n(Cc3ccccc3F)c3c(C(=O)O)cccc23)C1 (stereo not shown) has measured inhibition at 10 µM not below 90%. Thanks!
Marked response: F

Exam item: Hello, I need to know if CCCCC1CCCCc2c1c1cccc(C(=O)O)c1n2Cc1cccc(C#N)c1 (stereo not shown) has measured inhibition at 10 µM not below 90%. Thanks!
Marked response: F

Exam item: Hello, I need to know if CCCCCCC1CCCc2c(n(Cc3ccc4ncoc4c3)c3c(C(=O)O)cccc23)C1 (stereo not shown) has measured inhibition at 10 µM not below 90%. Thanks!
Marked response: T
